Sourced from patent US20210070748A1

# test-system: TEC (Homo sapiens)
# Sequence (P42680 1-631): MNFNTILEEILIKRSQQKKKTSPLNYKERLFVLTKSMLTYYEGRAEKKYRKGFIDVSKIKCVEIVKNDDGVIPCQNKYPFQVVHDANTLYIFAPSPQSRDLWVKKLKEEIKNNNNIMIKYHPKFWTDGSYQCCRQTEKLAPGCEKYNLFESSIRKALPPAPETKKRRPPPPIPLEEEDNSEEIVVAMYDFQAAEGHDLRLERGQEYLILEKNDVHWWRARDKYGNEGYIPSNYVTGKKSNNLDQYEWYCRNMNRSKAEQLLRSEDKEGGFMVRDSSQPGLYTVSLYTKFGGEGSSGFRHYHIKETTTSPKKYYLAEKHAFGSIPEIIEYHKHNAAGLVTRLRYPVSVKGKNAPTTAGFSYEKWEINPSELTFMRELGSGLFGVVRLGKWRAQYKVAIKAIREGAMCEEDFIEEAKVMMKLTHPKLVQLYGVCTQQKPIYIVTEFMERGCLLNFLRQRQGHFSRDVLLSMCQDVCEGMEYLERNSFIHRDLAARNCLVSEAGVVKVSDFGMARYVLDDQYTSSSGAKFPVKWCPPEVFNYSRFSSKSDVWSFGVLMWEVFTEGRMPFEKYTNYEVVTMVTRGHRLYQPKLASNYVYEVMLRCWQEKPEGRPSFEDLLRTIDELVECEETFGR
# assay-summary: Inhibition of a panel of kinases, in vitro HotSpot kinase assay: TEC
# Type: biochemical
# condition-info: D-compounds panel data; 1 μM ATP
Known IC50 of a selection of compounds

compound | IC50
C[C@@H]1[C@H](NC(=O)c2ccc(C3CC3)cc2)CCCN1c1cnc(C(N)=O)c(Nc2ccc(C3(C)CCN(C4CCCC4)CC3)cc2)n1 [Example D-112] | ≤ 10 nM
C[C@@H]1[C@H](NC(=O)c2ccc(C3CC3)cn2)CCCN1c1cnc(C(N)=O)c(Nc2ccc(N3CCN(C)CC3)cc2)n1 [Example D-188] | 10 to 100 nM

// switching to the query compound
Kindly indicate its recorded IC50. Item: C[C@@H]1[C@H](NC(=O)c2ccc(C3CC3)cc2F)CCCN1c1cnc(C(N)=O)c(Nc2ccc(N3CCN(C)CC3)cc2)c1 [Example D-126]
1000 to 10000 nM

---

# test-system: BTK-WT (Homo sapiens, UniProt Q06187)
# Construct: purified from insect cells as a full-length construct containing an N-terminal 6X-His tag; His6 (N); made in house; host or cells: insect cells (baculovirus Sf21 in Method B)
# Sequence (Q06187 whole entry): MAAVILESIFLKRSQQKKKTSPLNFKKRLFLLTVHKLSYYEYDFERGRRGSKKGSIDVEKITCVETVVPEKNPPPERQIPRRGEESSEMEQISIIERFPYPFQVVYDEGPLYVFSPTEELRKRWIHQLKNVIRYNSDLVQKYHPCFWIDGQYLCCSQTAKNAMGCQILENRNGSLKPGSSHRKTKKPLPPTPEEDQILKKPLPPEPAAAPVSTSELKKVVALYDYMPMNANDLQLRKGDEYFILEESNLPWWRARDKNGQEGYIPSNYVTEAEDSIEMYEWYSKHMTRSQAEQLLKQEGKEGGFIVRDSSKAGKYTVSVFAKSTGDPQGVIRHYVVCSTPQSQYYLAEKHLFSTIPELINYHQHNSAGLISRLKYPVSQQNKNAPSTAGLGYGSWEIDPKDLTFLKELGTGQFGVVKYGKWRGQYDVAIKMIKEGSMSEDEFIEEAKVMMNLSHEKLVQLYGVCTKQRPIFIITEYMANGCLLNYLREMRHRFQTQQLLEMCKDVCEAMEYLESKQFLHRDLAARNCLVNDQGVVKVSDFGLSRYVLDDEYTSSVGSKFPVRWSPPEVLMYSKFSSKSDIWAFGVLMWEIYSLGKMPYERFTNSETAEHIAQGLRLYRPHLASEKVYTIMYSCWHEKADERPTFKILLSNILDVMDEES
# assay-summary: Btk in vitro inhibitory activity (one of Method A TR-FRET, Method B electrophoretic mobility shift, Method C radiometric filter binding)
# Format: biochemical
# condition-info: D-compounds panel data; read-out: IC50 BTK-WT
assay-metric: IC50

Recorded results for 5 molecules are shown here.
molecule | test-system | IC50
Cn1cc(Nc2nc(N3CCCC4(C3)CN(c3ccc(C5CC5)cc3)C(=O)O4)cnc2C(N)=O)cn1 (centres unmarked) | BTK-WT (Homo sapiens, UniProt Q06187) | 0.01 to 0.1 µM
C[C@@H]1[C@H](NC(=O)c2ccc(C3CC3)cc2)CCCN1c1cnc(C(N)=O)c(Nc2ccc(N3CCC(C(C)(C)O)CC3)cc2)n1 | BTK-WT (Homo sapiens, UniProt Q06187) | ≤ 0.01 µM
C[C@@H]1[C@H](NC(=O)c2ccc(C3CC3)cc2)CCCN1c1cnc(C(N)=O)c(Nc2cnn(C)c2)c1 | BTK-WT (Homo sapiens, UniProt Q06187) | ≤ 0.01 µM
C[C@@H]1[C@H](NC(=O)c2ccc(C3CC3)cc2F)CCCN1c1cnc(C(N)=O)c(Nc2ccc(C3(C)CCN(C4CCCC4)CC3)cc2)n1 | BTK-WT (Homo sapiens, UniProt Q06187) | ≤ 0.01 µM
Cc1cc(Nc2cc(N3CCC[C@@H](NC(=O)N(C)C)[C@H]3C)cnc2C(N)=O)sn1 | BTK-WT (Homo sapiens, UniProt Q06187) | 0.01 to 0.1 µM

Kindly indicate its recorded IC50. Item: C[C@@H]1[C@H](NC(=O)c2cc(C(C)(C)C)n[nH]2)CCCN1c1cnc(C(N)=O)c(Nc2cnn(C)c2)n1
≤ 0.01 µM

Kindly indicate its recorded IC50. Item: C[C@@H]1[C@H](NC(=O)N(C)C)CCCN1c1cnc(C(N)=O)c(Nc2ccc(N3CCN(C4CCCC4)CC3)cc2)n1
≤ 0.01 µM

Kindly indicate its recorded IC50. Item: Cc1cccc(-c2cnc(C3CCCN(c4cnc(C(N)=O)c(Nc5cnn(C)c5)n4)C3)[nH]2)c1 (centres unmarked)
0.01 to 0.1 µM

---

# test-system: ITK (Homo sapiens)
# Sequence (Q08881 whole entry): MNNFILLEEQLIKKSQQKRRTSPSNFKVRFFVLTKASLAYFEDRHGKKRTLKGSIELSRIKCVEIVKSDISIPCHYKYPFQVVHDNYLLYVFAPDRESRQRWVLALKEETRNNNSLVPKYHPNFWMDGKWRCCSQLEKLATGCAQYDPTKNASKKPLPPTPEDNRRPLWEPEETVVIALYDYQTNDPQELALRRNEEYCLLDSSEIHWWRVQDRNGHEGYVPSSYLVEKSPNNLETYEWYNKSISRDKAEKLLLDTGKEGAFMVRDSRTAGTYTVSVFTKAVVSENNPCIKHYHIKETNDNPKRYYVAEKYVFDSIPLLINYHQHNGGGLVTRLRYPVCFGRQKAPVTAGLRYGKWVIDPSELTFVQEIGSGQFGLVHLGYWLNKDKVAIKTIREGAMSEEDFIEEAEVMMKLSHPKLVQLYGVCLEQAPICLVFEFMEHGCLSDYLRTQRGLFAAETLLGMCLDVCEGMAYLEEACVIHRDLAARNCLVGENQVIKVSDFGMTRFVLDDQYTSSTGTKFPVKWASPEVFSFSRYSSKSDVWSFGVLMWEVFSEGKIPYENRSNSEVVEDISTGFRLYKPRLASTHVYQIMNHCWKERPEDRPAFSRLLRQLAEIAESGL
# assay-summary: Inhibition of a panel of kinases, in vitro HotSpot kinase assay: ITK
# Format: biochemical
# condition-info: E compounds, Table 17
assay-metric: IC50

Recorded results for 5 molecules are shown here.
input-smiles | test-system | IC50
C=CC(=O)N1CCC[C@@H](Nc2nnc(C(N)=O)c(Nc3ccc(C(C)(C)C)cc3)n2)C1 | ITK (Homo sapiens) | ≤ 10 nM
C=CC(=O)N[C@H]1CCC[C@@H](Nc2nnc(C(N)=O)c(Nc3ccc(C(C)C)cc3)n2)C1 | ITK (Homo sapiens) | 100 to 1000 nM
C=CC(=O)N[C@@H]1CCC[C@@H](Nc2nnc(C(N)=O)c(Nc3ccc(C(C)C)cc3)n2)C1 | ITK (Homo sapiens) | 100 to 1000 nM
C=CC(=O)N1CC[C@@H](N(C)c2cnc(C(N)=O)c(Nc3ccc(C4CCN(C5CCCC5)CC4)cc3)n2)C1 | ITK (Homo sapiens) | ≤ 10 nM
C[C@@H]1[C@H](NC(=O)c2ccc3c(c2)C(C)(C)OC3)CCCN1c1cnc(C(N)=O)c(Nc2cnn(C)c2)n1 | ITK (Homo sapiens) | 100 to 1000 nM

Please tell me the measured IC50 for C=CC(=O)N[C@@H]1CCCN(c2nnc(C(N)=O)c(Nc3ccc(C(C)C)cc3)n2)C1 ; system: ITK (Homo sapiens).
100 to 1000 nM

Please tell me the measured IC50 for C=CC(=O)N1CCC[C@@H](Nc2nnc(C(N)=O)c(Nc3ccc4ncccc4c3)n2)C1 ; system: ITK (Homo sapiens).
≤ 10 nM

Please tell me the measured IC50 for C=CC(=O)N1CCC[C@@H](Nc2nnc(C(N)=O)c(Nc3ccc(C4CCN(C5CCCC5)CC4)cc3)n2)C1 ; system: ITK (Homo sapiens).
≤ 10 nM

Please tell me the measured IC50 for C=CC(=O)N1CCC[C@@H](Nc2nnc(C(N)=O)c(Nc3ccc(C4=NCCN4C)cc3)n2)C1 ; system: ITK (Homo sapiens).
≤ 10 nM

Please tell me the measured IC50 for C=CC(=O)N[C@@H]1CCCC[C@@H]1Nc1nnc(C(N)=O)c(Nc2ccc(C(C)C)cc2)n1 ; system: ITK (Homo sapiens).
100 to 1000 nM

Please tell me the measured IC50 for C=CC(=O)N1CCC[C@@H](Nc2nnc(C(N)=O)c(Nc3ccc4c(c3)CCC(=O)N4C)n2)C1 ; system: ITK (Homo sapiens).
≤ 10 nM

Please tell me the measured IC50 for Cc1nc(-c2ccc(C(=O)N[C@@H]3CCCN(c4cnc(C(N)=O)c(Nc5cnn(C)c5)n4)[C@@H]3C)cc2)cs1 ; system: ITK (Homo sapiens).
100 to 1000 nM

Please tell me the measured IC50 for C=CC(=O)N1CC[C@@H](N(C)c2cnc(C(N)=O)c(Nc3cnn(CCOC)c3)n2)C1 ; system: ITK (Homo sapiens).
≤ 10 nM

Please tell me the measured IC50 for C=CC(=O)N1CCC[C@H](Nc2cnc(C(N)=O)c(Nc3ccc(C(C)C)cc3)n2)C1 ; system: ITK (Homo sapiens).
100 to 1000 nM

Please tell me the measured IC50 for C=CC(=O)N1CCC[C@@H](Nc2nnc(C(N)=O)c(Nc3ccc(C4CCN(C(=O)CC)CC4)cc3)n2)C1 ; system: ITK (Homo sapiens).
≤ 10 nM

---

Known pIC50 of a selection of compounds
# test-system: EGFR (Homo sapiens)
# Sequence (P00533 25-1210): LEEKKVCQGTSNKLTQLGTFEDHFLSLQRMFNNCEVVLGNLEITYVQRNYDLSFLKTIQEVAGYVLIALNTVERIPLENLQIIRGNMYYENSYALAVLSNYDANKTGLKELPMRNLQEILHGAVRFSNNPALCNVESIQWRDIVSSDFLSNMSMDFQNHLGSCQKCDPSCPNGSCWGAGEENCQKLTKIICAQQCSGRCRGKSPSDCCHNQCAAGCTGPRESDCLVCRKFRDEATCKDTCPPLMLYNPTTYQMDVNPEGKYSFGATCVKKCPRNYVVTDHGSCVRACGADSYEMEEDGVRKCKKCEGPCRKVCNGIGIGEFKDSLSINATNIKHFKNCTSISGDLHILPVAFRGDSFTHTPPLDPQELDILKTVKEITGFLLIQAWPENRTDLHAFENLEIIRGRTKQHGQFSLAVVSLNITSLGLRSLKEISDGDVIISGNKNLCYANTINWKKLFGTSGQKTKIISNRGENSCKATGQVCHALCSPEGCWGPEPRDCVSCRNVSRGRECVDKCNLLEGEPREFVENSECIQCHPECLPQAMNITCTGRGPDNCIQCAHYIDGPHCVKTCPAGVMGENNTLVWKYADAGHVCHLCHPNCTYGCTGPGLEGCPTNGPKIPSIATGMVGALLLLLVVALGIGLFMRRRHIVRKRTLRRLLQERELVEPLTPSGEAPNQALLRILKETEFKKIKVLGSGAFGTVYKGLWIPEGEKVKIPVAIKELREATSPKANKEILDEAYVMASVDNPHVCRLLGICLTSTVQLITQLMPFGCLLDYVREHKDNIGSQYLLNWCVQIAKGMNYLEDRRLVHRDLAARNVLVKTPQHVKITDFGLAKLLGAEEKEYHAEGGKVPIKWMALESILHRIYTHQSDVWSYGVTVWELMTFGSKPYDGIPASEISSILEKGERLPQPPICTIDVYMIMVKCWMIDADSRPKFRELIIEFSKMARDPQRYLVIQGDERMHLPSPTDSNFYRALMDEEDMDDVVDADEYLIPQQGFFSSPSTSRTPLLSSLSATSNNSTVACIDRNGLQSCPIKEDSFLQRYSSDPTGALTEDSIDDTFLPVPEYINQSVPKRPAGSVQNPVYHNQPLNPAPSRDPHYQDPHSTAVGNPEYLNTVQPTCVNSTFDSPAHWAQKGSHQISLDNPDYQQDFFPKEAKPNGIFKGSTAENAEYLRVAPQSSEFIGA
# assay-summary: Inhibition of a panel of kinases, in vitro HotSpot kinase assay: EGFR
# Assay type: biochemical
# condition-info: D-compounds panel data; 1 μM ATP
pIC50: −log10 of the molar value.

compound | test-system | pIC50
C[C@@H]1CC[C@H](NC(=O)c2ccc(C3CC3)cc2)CN1c1cnc(C(N)=O)c(Nc2cnn(C)c2)n1 [Example D-145] | EGFR (Homo sapiens) | 5.00 to 6.00
CC(=O)N1CCN(c2ccc(Nc3nc(N4CCC[C@@H](NC(=O)c5ccc(C6CC6)cc5)[C@H]4C)cnc3C(N)=O)cc2)CC1 [Example D-295] | EGFR (Homo sapiens) | 6.00 to 7.00
CN(C)C(=O)N[C@H]1CCCN(c2cnc(C(N)=O)c(Nc3ccc(C4(C)CCN(C5CCCC5)CC4)cc3)n2)[C@@H]1CO [Example D-61] | EGFR (Homo sapiens) | < 5.00

// switching to the query compound
Kindly indicate its recorded pIC50. Item: C[C@@H]1CC[C@H](NC(=O)N(C)C)CN1c1cnc(C(N)=O)c(Nc2cnn(C)c2)n1 [Example D-151]
5.00 to 6.00
